Across several publications, the following pIC50 results were reported for Mast/stem cell growth factor receptor Kit (Homo sapiens).
pIC50: −log10 of the molar value.

What does the data say about its pIC50? Entry: CCN(CC)c1ccc(Nc2cnc3[nH]ccc3c2)cc1 ≥ 5.00

What does the data say about its pIC50? Entry: CCCS(=O)(=O)Oc1ccc(F)c(C(=O)c2c[nH]c3ncc(Br)cc23)c1F ≥ 5.00

What does the data say about its pIC50? Entry: O=C(c1cccc(OC(F)F)c1)c1c[nH]c2ncc(-c3cccnc3)cc12 ≥ 5.00

What does the data say about its pIC50? Entry: Cc1cnc2[nH]cc(Cc3cnc(Nc4cc(C(C)(C)C)n[nH]4)nc3)c2c1 > 6.00

What does the data say about its pIC50? Entry: c1ccc(Nc2cnc3[nH]ccc3c2)cc1 ≥ 5.00

What does the data say about its pIC50? Entry: CC(=O)Nc1cccc(-c2cnc3[nH]cc(C(=O)c4cccc(OC(F)F)c4)c3c2)c1 ≥ 5.00

What does the data say about its pIC50? Entry: CCCS(=O)(=O)Nc1ccc(F)c(C(=O)c2c[nH]c3ncc(-c4ccc(OCCOC)cc4)cc23)c1F ≥ 5.00

What does the data say about its pIC50? Entry: COc1ccc(Nc2ccc(C(=O)c3c[nH]c4ncnc(NCC(F)(F)F)c34)c(F)n2)cn1 > 7.00

What does the data say about its pIC50? Entry: O=C(CCCCCCC(=O)Nc1cc(Oc2ccc(NC(=O)Nc3ccc(Cl)c(C(F)(F)F)c3)cc2)ccn1)NO > 7.00

What does the data say about its pIC50? Entry: CCCCNC(=O)Nc1ccc(F)c(C(=O)c2c[nH]c3ncc(-c4cccnc4)cc23)c1 ≥ 5.00

What does the data say about its pIC50? Entry: c1cc(Cc2c[nH]c3ncccc23)cc(OCCOC2CCCCO2)c1 (stereo not shown) ≥ 5.00

What does the data say about its pIC50? Entry: O=C(c1c(F)ccc(NS(=O)(=O)CCC(F)(F)F)c1F)c1c[nH]c2ncc(-c3ccc(Cl)cc3)cc12 ≥ 5.00

What does the data say about its pIC50? Entry: CS(=O)(=O)c1cccc(-c2cnc3[nH]cc(C(=O)c4cc(NS(=O)(=O)C5CCCCC5)ccc4F)c3c2)c1 ≥ 5.00

What does the data say about its pIC50? Entry: COc1ncnc2[nH]cc(Cc3cnc(NCc4ccc(C(F)(F)F)nc4)nc3)c12 ≥ 5.00

What does the data say about its pIC50? Entry: Fc1nc(Nc2ccc(C3CC3)nc2)ccc1Cc1c[nH]c2ncccc12 > 7.00

What does the data say about its pIC50? Entry: c1ccc(COc2cccc(Cc3c[nH]c4ncc(-c5ccsc5)cc34)c2)cc1 ≥ 5.00

====

Across several publications, the following IC50 results were reported for Mast/stem cell growth factor receptor Kit (Homo sapiens, UniProt P10721).

# query: IC50 | item CC(C)(C)OC(=O)N(Cc1ccc(Cl)cc1)c1ccc(C(=O)c2c[nH]c3ncccc23)cn1 | system: Mast/stem cell growth factor receptor Kit (Homo sapiens, UniProt P10721) ≤ 10 µM

# query: IC50 | item N#Cc1ccnc2[nH]cc(C(=O)c3c(F)ccc(NS(=O)(=O)c4cc(F)ccc4F)c3F)c12 | system: Mast/stem cell growth factor receptor Kit (Homo sapiens, UniProt P10721) ≤ 10 µM

# query: IC50 | item COc1ccc(F)c(C(=O)c2c[nH]c3ncccc23)c1 | system: Mast/stem cell growth factor receptor Kit (Homo sapiens, UniProt P10721) ≤ 10 µM

# query: IC50 | item CCc1ccc(Nc2ccc(C(=O)c3c[nH]c4ncnc(NCC(F)(F)F)c34)c(F)n2)cn1 | system: Mast/stem cell growth factor receptor Kit (Homo sapiens, UniProt P10721) < 0.1 µM

# query: IC50 | item COc1cc(Cc2c[nH]c3ncc(Cl)cc23)c(F)cc1OCc1nc2cc(Cl)c(Cl)cc2[nH]1 | system: Mast/stem cell growth factor receptor Kit (Homo sapiens, UniProt P10721) ≤ 10 µM

# query: IC50 | item CCC1CN(c2cncnc2)Cc2cc(C(=O)Nc3cc(CN4CCN(C)CC4)cc(C(F)(F)F)c3)ccc21 (stereo not shown) | system: Mast/stem cell growth factor receptor Kit (Homo sapiens, UniProt P10721) > 10 µM

# query: IC50 | item O=C(c1cc(NS(=O)(=O)c2cccc(Cl)c2)ccc1F)c1c[nH]c2ncccc12 | system: Mast/stem cell growth factor receptor Kit (Homo sapiens, UniProt P10721) ≤ 10 µM

# query: IC50 | item Cc1nc(C)c(COc2ccc(F)c(C(=O)c3c[nH]c4ncc(Cl)cc34)c2F)s1 | system: Mast/stem cell growth factor receptor Kit (Homo sapiens, UniProt P10721) ≤ 10 µM

# query: IC50 | item COc1ccnc2[nH]cc(C(=O)c3c(F)ccc(NS(=O)(=O)c4ccc(F)cc4)c3F)c12 | system: Mast/stem cell growth factor receptor Kit (Homo sapiens, UniProt P10721) ≤ 10 µM

# query: IC50 | item Cn1cc(-c2cnc3[nH]cc(C(=O)c4cc(NS(=O)(=O)c5cccc(Cl)c5)ccc4F)c3c2)cn1 | system: Mast/stem cell growth factor receptor Kit (Homo sapiens, UniProt P10721) ≤ 10 µM

# query: IC50 | item CCS(=O)(=O)Nc1ccc(F)c(C(=O)c2c[nH]c3ncc(-c4cnn(C)c4)cc23)c1F | system: Mast/stem cell growth factor receptor Kit (Homo sapiens, UniProt P10721) ≤ 10 µM

# query: IC50 | item CCCC(=O)Nc1ccc(F)c(Cc2c[nH]c3ncc(-c4cccnc4)cc23)c1F | system: Mast/stem cell growth factor receptor Kit (Homo sapiens, UniProt P10721) ≤ 10 µM

# query: IC50 | item CCCS(=O)(=O)Nc1ccc(F)c(C(=O)c2c[nH]c3ncc(-c4cccc(N5CCOCC5)c4)cc23)c1F | system: Mast/stem cell growth factor receptor Kit (Homo sapiens, UniProt P10721) ≤ 10 µM

# query: IC50 | item CCCS(=O)(=O)Nc1ccc(F)c(C(=O)c2c[nH]c3ncc(C(=O)NC)cc23)c1F | system: Mast/stem cell growth factor receptor Kit (Homo sapiens, UniProt P10721) ≤ 10 µM

# query: IC50 | item COc1cc(Nc2ncc(Cc3c[nH]c4ncc(C)cc34)cn2)ccc1F | system: Mast/stem cell growth factor receptor Kit (Homo sapiens, UniProt P10721) < 0.1 µM

# query: IC50 | item Cn1cc(-c2cc(Oc3ccc(NC(=O)N4CCC5(CCCC(F)(F)C5)C4=O)nc3)ccn2)cn1 (stereo not shown) | system: Mast/stem cell growth factor receptor Kit (Homo sapiens, UniProt P10721) 0.02 µM
